Target: T1, glucose-dependent insulinotropic peptide (gastric inhibitory polypeptide) receptor (GIPR), primary cAMP assay (human, UniProt P48546 22-466)
T1 sequence (looked up): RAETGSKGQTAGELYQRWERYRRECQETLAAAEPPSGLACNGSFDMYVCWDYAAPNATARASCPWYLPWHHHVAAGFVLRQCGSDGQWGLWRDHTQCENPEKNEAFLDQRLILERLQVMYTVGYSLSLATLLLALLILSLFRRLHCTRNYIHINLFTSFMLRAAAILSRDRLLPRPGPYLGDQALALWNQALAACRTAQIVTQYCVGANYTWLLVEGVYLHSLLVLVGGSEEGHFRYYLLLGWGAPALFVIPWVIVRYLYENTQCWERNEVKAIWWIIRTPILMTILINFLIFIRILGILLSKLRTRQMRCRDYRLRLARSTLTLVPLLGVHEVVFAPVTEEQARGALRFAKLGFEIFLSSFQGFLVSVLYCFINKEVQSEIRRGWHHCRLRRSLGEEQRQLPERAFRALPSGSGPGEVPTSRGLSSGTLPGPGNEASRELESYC
Test: cell-based or functional assay
Starred links: 1 amine or outer side, 2 acyl side, 3 side chain; linkers in the order of their positions; H or OH if unused. Non-standard residues stand in square brackets, D forms with d. Groups on a side chain read outwards from the residue. Primed or numbered codes have the meaning given here. No end group written: not given here. *: point of attachment. γGlu = O=C(O)[C@H](CCC(=O)[*:2])N[*:1]; Palmitoyl = CCCCCCCCCCCCCCCC(=O)*; αMeF = C[C@](N)(Cc1ccccc1)C(=O)O; αMeK = C[C@](N)(CCCCN)C(=O)O; Lauroyl = CCCCCCCCCCCC(=O)*; PEG2′ = not defined here; Aib = CC(C)(N)C(=O)O
OBSERVABLE: Primary assay EC50 (cAMP), n1 (nM)

| BINDER | VALUE_UNIT | TEST_VALUE |
| --- | --- | --- |
| H[Aib]EGTFTSDVSK([PEG2′-PEG2′-γGlu-Lauroyl])FLEGEAAEEFIK([PEG2′-PEG2′-γGlu-Lauroyl])WVVEGG-NH2 [SEQ ID NO: 237] | nM | 22.3 |
| H[Aib]EGS[αMeF]TSDK([PEG2′-PEG2′-γGlu-Lauroyl])SSYLEGEAA[αMeK]EFIK([PEG2′-PEG2′-γGlu-Lauroyl])WVVEGG-NH2 [SEQ ID NO: 256] | nM | 22.2 |
| H[Aib]EGS[αMeF]TSDK([PEG2′-PEG2′-γGlu-Palmitoyl])SSYLEGEAA[αMeK]EFIAK([PEG2′-PEG2′-γGlu-Palmitoyl])VVEGG-NH2 [SEQ ID NO: 260] | nM | 21.9 |
| H[Aib]EGS[αMeF]TSDK([PEG2′-PEG2′-γGlu-Lauroyl])SSYLEGEAA[αMeK]EFIAWK([PEG2′-PEG2′-γGlu-Lauroyl])VEGG-NH2 [SEQ ID NO: 258] | nM | 22.3 |
